B1: library; a variant is named by its letters at N, in order (parent)
chain: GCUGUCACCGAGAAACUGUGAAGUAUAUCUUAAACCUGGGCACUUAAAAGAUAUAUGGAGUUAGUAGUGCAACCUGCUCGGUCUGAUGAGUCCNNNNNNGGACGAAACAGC

- Variants of: B1
- procedure-summary: normalized RNA/DNA level with ligand (relative to sTRSVctl = 100) (log10 (% of sTRSVctl)); HEK293T; ligand: cyclic di-GMP (c-di-GMP-II aptamer); ligand concentration (+) RNA-Seq: 1 mM; higher = less ribozyme self-cleavage, higher mRNA level
- particulars: reporter: mCherry (pCS4076), ligand present: yes
The variants listed here are annotated with their normalized RNA/DNA level with ligand (log10).

Solved entries:
In [3]: df
Out[3]:
   variant_key  observed
0       UGGCGA      1.74
1       CGGGCG      1.94
2       GAAGAA      1.59

# query: normalized RNA/DNA level with ligand (log10) of entry AUACUA
1.78

# query: normalized RNA/DNA level with ligand (log10) of entry CACCGC
1.85
